Can you tell me HDAC6 selectivity (fold) for the items I'm about to list?
Molecular target: human recombinant HDAC6 (Homo sapiens, UniProt Q9UBN7)
Construct: purchased Calbiochem 382180
Sequence (Q9UBN7 1-1215): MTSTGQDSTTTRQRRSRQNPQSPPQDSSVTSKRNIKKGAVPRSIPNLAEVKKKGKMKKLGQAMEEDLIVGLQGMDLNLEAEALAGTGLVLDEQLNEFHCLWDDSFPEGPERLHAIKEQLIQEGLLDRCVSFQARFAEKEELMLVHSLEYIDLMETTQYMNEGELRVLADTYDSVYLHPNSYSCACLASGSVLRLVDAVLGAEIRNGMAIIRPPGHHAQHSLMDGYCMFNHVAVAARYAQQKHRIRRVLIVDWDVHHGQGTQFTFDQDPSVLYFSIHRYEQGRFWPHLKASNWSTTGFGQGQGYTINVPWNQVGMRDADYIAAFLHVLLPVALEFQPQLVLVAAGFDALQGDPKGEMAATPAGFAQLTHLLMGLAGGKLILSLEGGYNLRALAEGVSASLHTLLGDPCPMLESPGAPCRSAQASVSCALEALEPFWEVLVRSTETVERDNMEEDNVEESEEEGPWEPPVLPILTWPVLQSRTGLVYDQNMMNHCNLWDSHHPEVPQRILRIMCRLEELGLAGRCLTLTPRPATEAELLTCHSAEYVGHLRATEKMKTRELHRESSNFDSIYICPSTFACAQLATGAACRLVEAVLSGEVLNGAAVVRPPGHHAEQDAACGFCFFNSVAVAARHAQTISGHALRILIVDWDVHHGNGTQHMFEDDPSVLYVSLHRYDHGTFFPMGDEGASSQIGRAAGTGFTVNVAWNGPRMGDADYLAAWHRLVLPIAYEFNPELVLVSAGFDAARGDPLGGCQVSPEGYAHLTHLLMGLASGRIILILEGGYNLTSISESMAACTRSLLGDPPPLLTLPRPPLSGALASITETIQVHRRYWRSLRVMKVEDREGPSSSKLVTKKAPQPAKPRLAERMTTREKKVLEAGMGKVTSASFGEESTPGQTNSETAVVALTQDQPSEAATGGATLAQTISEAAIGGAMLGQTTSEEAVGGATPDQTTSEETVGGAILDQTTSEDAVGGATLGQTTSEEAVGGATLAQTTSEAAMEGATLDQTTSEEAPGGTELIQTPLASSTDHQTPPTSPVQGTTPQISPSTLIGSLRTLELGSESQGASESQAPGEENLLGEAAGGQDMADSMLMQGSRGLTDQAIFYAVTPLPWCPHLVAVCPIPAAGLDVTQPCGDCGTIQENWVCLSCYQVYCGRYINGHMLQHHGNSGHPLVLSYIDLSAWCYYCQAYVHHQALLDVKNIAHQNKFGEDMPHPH
Experiment: HDAC6 enzyme activity inhibition assay (HDAC Fluorimetric Drug Discovery Kit)
Assay type: biochemical
Settings: HDAC1 vs HDAC6

[Q] What value of measured HDAC6 selectivity (fold) is listed for C[C@@H]1CN(CCS(=O)(=O)N(Cc2ccc(-c3nnc(C(F)F)o3)cc2)c2ccccc2)C[C@H](C)N1 [Compound 11632] ?
[A] 1587 fold

[Q] What value of measured HDAC6 selectivity (fold) is listed for Cc1ccc(N(Cc2ccc(-c3nnc(C(F)F)o3)cc2F)S(C)(=O)=O)cc1 [Compound 11283] ?
[A] 1852 fold

[Q] What value of measured HDAC6 selectivity (fold) is listed for COc1cccc(N(Cc2ccc(-c3nnc(C(F)F)o3)cc2F)S(C)(=O)=O)c1 [Compound 11180] ?
[A] 1613 fold

[Q] What value of measured HDAC6 selectivity (fold) is listed for Cc1cccc(N(Cc2ccc(-c3nnc(C(F)F)o3)cc2)S(=O)(=O)C2CCN(C3COC3)CC2)c1 [Compound 11682] ?
[A] 4545 fold

[Q] What value of measured HDAC6 selectivity (fold) is listed for CCS(=O)(=O)N(Cc1ccc(-c2nnc(C(F)F)o2)cc1F)c1cccc(CN2CCN(C(C)=O)CC2)c1 [Compound 11403] ?
[A] 1282 fold

[Q] What value of measured HDAC6 selectivity (fold) is listed for O=S(=O)(c1cccnc1)N(Cc1ccc(-c2nnc(C(F)(F)F)o2)cc1)c1cccc(F)c1 [Compound 11155] ?
[A] 1250 fold

[Q] What value of measured HDAC6 selectivity (fold) is listed for Cc1cccc(N(Cc2ccc(-c3nnc(C(F)F)o3)cn2)S(=O)(=O)C2CCN(C3CC4CCC3C4)CC2)c1 (stereo not drawn) [Compound 11686] ?
[A] 654 fold

[Q] What value of measured HDAC6 selectivity (fold) is listed for CCS(=O)(=O)N(Cc1ccc(-c2nnc(C(F)F)o2)cn1)c1ccc2cnn(C)c2c1 [Compound 11540] ?
[A] 10000 fold

[Q] What value of measured HDAC6 selectivity (fold) is listed for Cc1cncn1CCS(=O)(=O)N(Cc1ccc(-c2nnc(C(F)F)o2)cc1)c1ccccc1 [Compound 11807] ?
[A] 1584 fold

[Q] What value of measured HDAC6 selectivity (fold) is listed for CCS(=O)(=O)N(Cc1ccc(-c2nnc(C(F)F)o2)cn1)c1ccc(F)c(C)c1 [Compound 11461] ?
[A] 2769 fold

[Q] What value of measured HDAC6 selectivity (fold) is listed for O=S(=O)(c1cccnc1)N(Cc1ccc(-c2nnc(C(F)(F)F)o2)cc1F)c1cccc(C(F)(F)F)n1 [Compound 11253] ?
[A] 150 fold

[Q] What value of measured HDAC6 selectivity (fold) is listed for CS(=O)(=O)N(Cc1ccc(-c2nnc(C(F)F)o2)cc1F)c1cccc(Cl)c1 [Compound 11191] ?
[A] 5000 fold

[Q] What value of measured HDAC6 selectivity (fold) is listed for CS(=O)(=O)N(Cc1ccc(-c2nnc(C(F)F)o2)cn1)c1cccc(Br)c1 [Compound 11354] ?
[A] 12500 fold

[Q] What value of measured HDAC6 selectivity (fold) is listed for CC(C)(C)OC(=O)N1CCC(N(Cc2ccc(-c3nnc(C(F)F)o3)cc2F)S(C)(=O)=O)CC1 [Compound 11338] ?
[A] 195 fold

[Q] What value of measured HDAC6 selectivity (fold) is listed for CCC(=O)N1CC(N2CCC(S(=O)(=O)N(Cc3ccc(-c4nnc(C(F)F)o4)cn3)c3cccc(Cl)c3)CC2)C1 [Compound 11782] ?
[A] 4032 fold
